Source of measurements: patent US20210198277A1

System: EHMT1 (Homo sapiens)
Sequence (Q9H9B1 whole entry, species assumed): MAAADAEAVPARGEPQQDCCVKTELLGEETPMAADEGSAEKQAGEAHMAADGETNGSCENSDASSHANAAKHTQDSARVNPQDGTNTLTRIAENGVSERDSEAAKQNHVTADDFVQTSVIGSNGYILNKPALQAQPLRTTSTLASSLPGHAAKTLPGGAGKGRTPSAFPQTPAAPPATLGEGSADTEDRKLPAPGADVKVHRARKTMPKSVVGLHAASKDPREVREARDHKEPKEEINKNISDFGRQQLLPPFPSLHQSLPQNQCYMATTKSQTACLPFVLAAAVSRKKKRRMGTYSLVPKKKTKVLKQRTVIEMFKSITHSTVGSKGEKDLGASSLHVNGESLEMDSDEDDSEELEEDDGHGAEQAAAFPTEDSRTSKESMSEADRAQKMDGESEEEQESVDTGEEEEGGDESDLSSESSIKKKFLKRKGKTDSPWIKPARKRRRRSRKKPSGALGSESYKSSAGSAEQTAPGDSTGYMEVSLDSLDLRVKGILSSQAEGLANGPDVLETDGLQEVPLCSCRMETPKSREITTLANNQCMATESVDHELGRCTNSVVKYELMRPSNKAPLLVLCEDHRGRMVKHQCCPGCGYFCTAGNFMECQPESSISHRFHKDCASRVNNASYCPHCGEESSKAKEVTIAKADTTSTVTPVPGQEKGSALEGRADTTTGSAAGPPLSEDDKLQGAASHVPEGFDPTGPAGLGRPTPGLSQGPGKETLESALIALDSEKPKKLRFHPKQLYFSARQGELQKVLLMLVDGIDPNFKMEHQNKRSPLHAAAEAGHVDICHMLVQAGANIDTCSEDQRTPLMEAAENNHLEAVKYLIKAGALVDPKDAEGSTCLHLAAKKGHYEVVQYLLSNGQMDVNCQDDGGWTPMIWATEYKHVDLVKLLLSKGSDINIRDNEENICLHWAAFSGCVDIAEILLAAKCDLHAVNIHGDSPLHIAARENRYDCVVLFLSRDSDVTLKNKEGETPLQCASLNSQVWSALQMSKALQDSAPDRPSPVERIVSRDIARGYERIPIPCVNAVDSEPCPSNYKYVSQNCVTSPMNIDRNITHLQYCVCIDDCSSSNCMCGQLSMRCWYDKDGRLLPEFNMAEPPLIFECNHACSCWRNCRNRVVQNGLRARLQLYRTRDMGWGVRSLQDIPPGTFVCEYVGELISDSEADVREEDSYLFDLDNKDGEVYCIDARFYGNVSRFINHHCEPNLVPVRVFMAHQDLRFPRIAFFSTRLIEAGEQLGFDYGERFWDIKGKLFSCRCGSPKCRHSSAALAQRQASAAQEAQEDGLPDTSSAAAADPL
Method description: EHMT1 enzyme assay on peptide substrate (EHMT1 PEP)
Type: biochemical
Condition parameters: read-out: EHMT1 PEP (IC50 μM)
Each entry below carries its reported IC50.

Use these answered entries as a reference point.
> print(dat)
                                   compound  endpoint.label    reported
1  CNc1nc(C2CCN(C(C)C)CC2)c2cc(OC)c(OCCCN3CCCC3)cc2n1            IC50    < 0.1 µM
2  CCN1CC(COc2cc(Nc3cc(NC)cc(C)n3)cnc2OC)C1            IC50    < 0.1 µM
3  CNc1nc(C2=CCOCC2)c2cc(OC)c(OCCCN3CCCC3)cc2n1            IC50  1 to 10 µM
4  CNc1nc(C2CCCC2)c2cc(OC)c(OCCCN3CCCC3)cc2n1            IC50  1 to 10 µM

Task item: State the recorded IC50 for this entry: c1nc(NC2CCNCC2)ncc1OCC1CCN(C2CC2)C1 (centres unmarked)
Reply: > 10 µM

----------
System: human EHMT2 913-1193 (Homo sapiens, UniProt Q96KQ7)
Construct: recombinant purified human EHMT2 913-1193, Viva; purchased Viva
Sequence (Q96KQ7 913-1193): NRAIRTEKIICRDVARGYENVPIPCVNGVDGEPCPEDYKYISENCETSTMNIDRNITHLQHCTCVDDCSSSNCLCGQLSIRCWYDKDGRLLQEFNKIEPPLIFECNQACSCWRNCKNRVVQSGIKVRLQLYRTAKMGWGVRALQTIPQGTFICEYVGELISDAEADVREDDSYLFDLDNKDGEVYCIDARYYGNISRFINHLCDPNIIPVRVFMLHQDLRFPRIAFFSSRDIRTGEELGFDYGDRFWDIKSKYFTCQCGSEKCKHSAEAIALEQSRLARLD
Method description: EHMT2 enzyme assay on histone peptide substrate (EHMT2 PEP)
Assay type: biochemical
Condition parameters: Table III; read-out: EHMT2 PEP (IC50 μM)
Endpoint label: IC50

Illustrative cases are given below, each with its answer.
> print(dat)
                                   compound     reported
1  CNc1ccnc(Nc2ccc(OC)c(OCCC3CCCN3C)c2)n1 (stereo not drawn)  0.1 to 1 µM
2  CNc1cc(C2CC2)nc(Nc2ccc(OC)c(OCCCN3CCCC3)c2)n1     < 0.1 µM
3  CNc1cc(C)nc(Nc2ccc(F)c(OCCCN3CCCC3)c2)n1      > 10 µM
4  COc1ccc(Nc2nc(C)cc(NCC3CCOCC3)n2)cc1OCC1CCN(C)C1 (stereo not drawn)  0.1 to 1 µM

Task item: Give its IC50 value. Item: CNc1ccnc(Nc2ccc(OC)c(OCCCN3CCCCC3)c2)n1
Reply: 0.1 to 1 µM

Task item: Check CNc1ccnc(Nc2ccc(OC)c(OCCN3CCOCC3)c2)n1 too.
Reply: 1 to 10 µM

Task item: // repeat for CNc1cc(C)nc(Nc2ccc(OC)c(OCC3CNC3)c2)n1 and report
Reply: 0.1 to 1 µM

Task item: CNc1ccnc(Nc2ccc(OC)c(OCCCN(C)CC3CC3)c2)n1 ?
Reply: 1 to 10 µM

Task item: Let us now turn to CNc1cc(Nc2cc(OCCCN3CCCC3)c(OC)cn2)nc(C)n1
Reply: 1 to 10 µM

----------
System: human EHMT2 913-1193 (Homo sapiens)
Construct: recombinant purified human EHMT2 913-1193, Viva; purchased Viva
Method description: EHMT2 enzyme assay on histone peptide substrate (EHMT2 PEP)
Assay type: biochemical
Condition parameters: Table VI; read-out: EHMT2 PEP IC50
pIC50: −log10 of the molar value.
A collection of compounds and their measured pIC50

Field: example entries. Status: answers known.
> print(dat)
                                   compound      reported
1  CNCC(C)COc1cc(Nc2nccc(NC)n2)ccc1OC (stereo not shown)  5.00 to 6.00
2  CNc1cc(C)nc(Nc2ccc(OC)c(CNCCN3CCCC3)c2)n1        > 7.00
3  COc1cc2c(C3CCN(C)CC3)cc(C)nc2cc1OCCCN1CC[C@@H](F)C1        > 7.00
4  CNc1cc(C)c2cc(OC)c(OC[C@H](O)CN3CCC3)cc2n1        > 7.00
5           CNCCCOc1cc(Nc2nccc(NC)n2)cnc1OC  5.00 to 6.00
6  COc1cc(NC2CCNCC2)ncc1OCC1CCN(C)C1 (stereo not shown)  6.00 to 7.00

In the following, a different compound is considered.
Task item: For CC(C)N1CC(COc2cnc(NC3CCNCC3)nc2)C1 , what is its reported pIC50?
Reply: < 5.00
